Molecular target: T1, mouse programmed cell death protein 1 Fc fusion protein (mPD-1-Fc), mPD-1 C60S (aa 25-167) (Mus musculus, UniProt Q02242, stabilised)
T1 construct: not cleaved; source: Expi293F, purified (Protein A, SEC; dimeric fraction); not shown: Fc (human), C-terminal, kept
Test: SPR; Carterra LSA; Fab from the ammonium sulfate precipitate of the culture supernatant immobilised on a NiHC200M chip; hPD-1 (1-1024 nM) or mPD-1-Fc (4-1024 nM) as analyte, fourfold dilution series, no regeneration; HBS-EP pH 7.4, 25 °C; medians over the spots of a construct, KD = koff/kon
Details: one partner purified
measure: kon (M⁻¹ s⁻¹)
Give a bare numeral; the unit M⁻¹ s⁻¹ is implied.

Qu. For the binder toripalimab Fab L.V99L (Fab, V domains shown, as the heavy chain of Sm3; light chain of Sm3 with this change; numbers count from the chain's first residue; source: Brevibacillus, culture supernatant (ammonium sulfate precipitate); not shown: 6xHis, C-terminal, kept; 6xHN, C-terminal, kept) VH: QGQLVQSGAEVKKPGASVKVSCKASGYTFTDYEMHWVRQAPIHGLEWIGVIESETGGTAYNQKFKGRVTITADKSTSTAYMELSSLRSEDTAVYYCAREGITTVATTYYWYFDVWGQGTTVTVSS VL: DVVMTQSPLSLPVTLGQPASISCRSSQSIVHSNGNTYLEWYLQKPGQSPQLLIYKVSNRFSGVPDRFSGSGSGTDFTLKISRVEAEDVGVYYCFQGSHLPLTFGQGTKLEIK , give its reported kon.
Ans. 15500

Qu. For the binder toripalimab Fab L.S25A (Fab, V domains shown, as the heavy chain of Sm3; light chain of Sm3 with this change; numbers count from the chain's first residue; source: Brevibacillus, culture supernatant (ammonium sulfate precipitate); not shown: 6xHis, C-terminal, kept; 6xHN, C-terminal, kept) VH: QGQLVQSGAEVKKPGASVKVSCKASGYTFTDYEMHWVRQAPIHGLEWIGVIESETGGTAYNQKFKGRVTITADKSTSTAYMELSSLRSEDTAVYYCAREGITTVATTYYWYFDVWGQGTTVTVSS VL: DVVMTQSPLSLPVTLGQPASISCRASQSIVHSNGNTYLEWYLQKPGQSPQLLIYKVSNRFSGVPDRFSGSGSGTDFTLKISRVEAEDVGVYYCFQGSHVPLTFGQGTKLEIK , give its reported kon.
Ans. 56600
